B1: TPR t1 (parent)
chain: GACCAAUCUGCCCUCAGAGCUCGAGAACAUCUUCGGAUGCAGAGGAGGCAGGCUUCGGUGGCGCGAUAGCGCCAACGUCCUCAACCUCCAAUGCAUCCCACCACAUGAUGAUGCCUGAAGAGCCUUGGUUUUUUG

- Variants of: B1
- protocol: polymerase ribozyme fitness, log enrichment relative to wild type (log ratio); higher = more active; in vitro selection for triplet polymerase activity
Decide by polymerase ribozyme fitness (log ratio): equal to or exceeding -4 means MET, less means NOT MET.

* A46C G61U U106A | MET
* C40U G48C C82A | MET
* A24G G128A | MET
* C22G C73G U133G | NOT MET
* U7G C53A A91U C101G | NOT MET
* C3A G61U C115A | MET
* G25C G61A | NOT MET
* A43U U59G U96A A105U A121C | NOT MET
* A18U G48U | MET
* G36U C53U G61A A118G | MET
* A6C C56U A83C U112G | MET
* U87C C115U | MET
* C88G C124U | MET
* G52U C73G U92C C104U U116C U129A | NOT MET
* G45U A68G C79G C99U U112A | NOT MET
* C4G U112C | MET
* C34A G39U C73G C98A | NOT MET
* A37U A46U G47A U130G U131G | MET
* U96A U133G | MET
* A24U C53G C72U C89A C124A | NOT MET
